Cited source for all entries: patent US20230012273A1

# System Name: T1, Human SIRPαV1 (NP_542970.1), Extracellular Domain + His-Tag (human, UniProt P78324 31-373)
# T1 construct: also called huSIRPαV1; hSIRPαV1; not shown: His-Tag
# T1 sequence (P78324 other isoform, or with tags, fused parts or gaps): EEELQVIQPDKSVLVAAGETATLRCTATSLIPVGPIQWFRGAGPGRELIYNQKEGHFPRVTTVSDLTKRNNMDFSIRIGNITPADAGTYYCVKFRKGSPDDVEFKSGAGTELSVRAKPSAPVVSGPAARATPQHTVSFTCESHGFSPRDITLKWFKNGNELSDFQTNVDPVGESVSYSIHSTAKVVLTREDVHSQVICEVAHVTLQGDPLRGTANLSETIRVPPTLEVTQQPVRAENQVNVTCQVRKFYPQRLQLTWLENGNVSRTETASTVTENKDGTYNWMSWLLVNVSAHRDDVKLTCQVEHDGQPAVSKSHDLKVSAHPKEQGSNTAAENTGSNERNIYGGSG
# Test Summary: SPR, antibody captured on Protein A/G, ECD-His analyte, 1:1 fit
# koff per record follows
Give the value in s⁻¹ but do not write s⁻¹ after it.

For the binder shown here, Antibody E2 (antibody, human IgG1, kappa, L234A L235A, V domains shown) VH: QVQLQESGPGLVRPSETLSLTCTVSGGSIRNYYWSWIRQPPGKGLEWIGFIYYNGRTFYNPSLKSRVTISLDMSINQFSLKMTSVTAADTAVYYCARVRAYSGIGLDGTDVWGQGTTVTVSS VL: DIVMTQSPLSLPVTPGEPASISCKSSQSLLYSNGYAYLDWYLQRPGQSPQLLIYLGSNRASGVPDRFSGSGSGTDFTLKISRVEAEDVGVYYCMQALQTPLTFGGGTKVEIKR , give the reported koff.
0.000419

Pending binder:
For the binder shown here, Antibody E9 (antibody, human IgG1, kappa, L234A L235A, V domains shown) VH: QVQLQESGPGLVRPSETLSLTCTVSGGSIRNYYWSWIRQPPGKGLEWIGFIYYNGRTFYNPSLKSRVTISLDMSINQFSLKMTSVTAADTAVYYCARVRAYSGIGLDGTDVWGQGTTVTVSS VL: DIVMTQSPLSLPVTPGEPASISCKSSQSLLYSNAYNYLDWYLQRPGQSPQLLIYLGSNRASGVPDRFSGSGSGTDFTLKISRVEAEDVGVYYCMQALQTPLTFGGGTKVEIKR , give the reported koff.
0.000631
